- subject-of-test: binding partner (antigen) of C5A (XPA23)
- assay-info: Biacore, K-off, fold vs original
measured-quantity: fold difference in affinity vs original (fold)
Report only the number, with the unit fold understood.

Example cases with answers are listed next.
C5A (XPA23) VH R59W (antibody, V domains shown) VH: EVQLLESGGGLVQPGGSLRLSCAASGFTFSKYFMFWVRQAPGKGLEWVSVISPSGGMTWYADSVKGRFTISRDNSKNTLYLQMNSLRAEDTAVYYCARVGYGGNSDYWGQGTLVTVSS VL: DIQMTQSPSSVSASVGDRLTIICRASQDINRWLAWYQQTPGNAPKLLIHSATSLQSGVPSRFSGSGSGTDFTLTINSLQPEDFATYYCQQADSFPLTFGGGTKVEIK = 0.09
C5A (XPA23) VH S105F (antibody, V domains shown) VH: EVQLLESGGGLVQPGGSLRLSCAASGFTFSKYFMFWVRQAPGKGLEWVSVISPSGGMTRYADSVKGRFTISRDNSKNTLYLQMNSLRAEDTAVYYCARVGYGGNFDYWGQGTLVTVSS VL: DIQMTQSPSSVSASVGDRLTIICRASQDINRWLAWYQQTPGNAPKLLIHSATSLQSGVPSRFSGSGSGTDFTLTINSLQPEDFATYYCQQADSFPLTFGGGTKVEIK = 1.25

--- query ---
Per the record, C5A (XPA23) VH S52V (antibody, V domains shown) VH: EVQLLESGGGLVQPGGSLRLSCAASGFTFSKYFMFWVRQAPGKGLEWVSVIVPSGGMTRYADSVKGRFTISRDNSKNTLYLQMNSLRAEDTAVYYCARVGYGGNSDYWGQGTLVTVSS VL: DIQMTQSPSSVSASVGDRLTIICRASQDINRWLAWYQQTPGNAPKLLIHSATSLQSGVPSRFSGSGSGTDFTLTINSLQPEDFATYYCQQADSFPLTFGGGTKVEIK has fold difference in affinity vs original of 0.04

Measured values drawn from patent US20110118447A1 for this set.
